molecular target: Recombinant human his-tagged IGF 1R extracellular domain protein (human) (UniProt P08069); test: SPR, captured antibody, pH 7.4
property_measured: koff (s⁻¹)
The figure you give is taken to be in s⁻¹; do not add the unit.

## Input Fill in: koff of VRDN-03038 (antibody, V domains shown) VH: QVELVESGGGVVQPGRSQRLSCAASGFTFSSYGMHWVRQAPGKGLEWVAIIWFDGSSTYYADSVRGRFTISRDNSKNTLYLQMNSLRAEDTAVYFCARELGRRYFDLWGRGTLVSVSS VL: EIVLTQSPATLSLSPGERATLSCHASQSVSSYLAWYQQKPGQAPRLLIYDASKRATGIPARFSGSGSGTDFTLTISSLEPEDFAVYYCQQRSKWPPWTFGQGTKVESK is ___
## Output 0.000167
